Overview of reported inhibition across a group of molecules:
target: Cytochrome P450 2C9 (Homo sapiens); assay: blockers of cytochrome P450 2C9 activity – biochemical, luminescence, ADME assay, primary screen (AID 777); details: CYP2C9 Supersomes, luciferin-H conversion, at 5 µM, active compounds read high
About 19,000 (20%) of roughly 96,000 compounds were called active. A selection follows.
Give just the numeric value; % need not be written.

Field: example entries. Status: answers known.
O=C(c1ccco1)N1CCN(c2cccc(Cl)c2)CC1	17.6
O=C(c1ccc2c(c1)OCO2)N1CCN(C(=O)c2ccco2)CC1	15.8

IN: Which inhibition reading was recorded for the molecule COc1ccc(CN2CCn3ncc(C(=O)Nc4ccc(Cl)cc4Cl)c3C2=O)cc1 ?
OUT: 14.3

IN: Which inhibition reading was recorded for the molecule Cc1nc2ccc(NC(=O)N3CCC(c4ccccc4)C3)cc2nc1C (stereo not given) ?
OUT: 51.4

IN: Which inhibition reading was recorded for the molecule COc1cc2ccccc2cc1C(=O)Nc1ccc(S(=O)(=O)Nc2cc(C)on2)cc1 ?
OUT: 3.1

IN: Which inhibition reading was recorded for the molecule CCN(CC)CCN1C(=O)C(=O)/C(=C(/O)c2ccccc2)C1c1ccccc1F (stereo not given) ?
OUT: -5.9

IN: Which inhibition reading was recorded for the molecule Cn1c(CCN2CCCCCC2)nc2cc(NC(=O)Nc3ccccc3)ccc21 ?
OUT: -0.2

IN: Which inhibition reading was recorded for the molecule O=C(CCS(=O)(=O)Cc1ccccc1F)NCCCN1CCCCC1 ?
OUT: -0.3

IN: Which inhibition reading was recorded for the molecule CC1(C)Cc2c(sc3nc(SCC(=O)NCc4ccccc4)n(-c4ccccc4)c(=O)c23)CS1 ?
OUT: -0.2

IN: Which inhibition reading was recorded for the molecule CC(=O)C1=C(O)C(=O)N(c2ccc(S(N)(=O)=O)cc2)C1c1ccccc1F (stereo not given) ?
OUT: 62.8

IN: Which inhibition reading was recorded for the molecule Cn1c(=O)c2c(nc(N3CCCCCC3)n2CC(=O)c2ccc(Br)cc2)n(C)c1=O ?
OUT: 15.6

IN: Which inhibition reading was recorded for the molecule O=C(Nc1cccn(Cc2c(Cl)cccc2Cl)c1=O)c1ccc(Cl)cc1 ?
OUT: 71.8

IN: Which inhibition reading was recorded for the molecule COc1ccc(C2C=C(c3ccc(Br)cc3)Nc3nc(NS(C)(=O)=O)nn32)cc1 (stereo not given) ?
OUT: -11.7

IN: Which inhibition reading was recorded for the molecule COCCNC(=O)C(c1ccc(C)o1)N(Cc1ccccc1)C(=O)Cn1nnc2ccccc21 (stereo not given) ?
OUT: 16.2

IN: Which inhibition reading was recorded for the molecule O=C(CN1C(=O)CC(c2ccccc2)=Nc2ccccc21)NC1CCCCC1 ?
OUT: 52.3

IN: Which inhibition reading was recorded for the molecule O=C(CN1CCN(C2CCCCC2)CC1)Nc1ccccc1N1CCCCC1 ?
OUT: -1.6

IN: Which inhibition reading was recorded for the molecule N#C/C(=C\c1ccccc1)c1n[nH]c(Cn2cncn2)n1 ?
OUT: 27

IN: Which inhibition reading was recorded for the molecule COc1ccc(N=Cc2c(O)[nH]c3ccccc23)cc1OC ?
OUT: 2.9

IN: Which inhibition reading was recorded for the molecule COCCNCCOCCOc1cccc(OC)c1 ?
OUT: 12.5

IN: Which inhibition reading was recorded for the molecule O=C(c1ccco1)N1CCN(C(=O)C2c3ccccc3Oc3ccccc32)CC1 ?
OUT: 58.3

IN: Which inhibition reading was recorded for the molecule O=C(NC1CCCCC1)c1ccc(CNc2c(N3CCOCC3)c(=O)c2=O)cc1 ?
OUT: -23.2

IN: Which inhibition reading was recorded for the molecule CC1CCCN(Cc2nc3c(c(=O)n(C)c(=O)n3C)n2CC(=O)c2ccccc2)C1 (stereo not given) ?
OUT: 11.2

IN: Which inhibition reading was recorded for the molecule CC(C)NC(=O)CSc1nnc(COc2ccccc2Cl)o1 ?
OUT: -39.2

IN: Which inhibition reading was recorded for the molecule O=S(=O)(NCc1ccccn1)c1ccc(F)cc1 ?
OUT: -1.3

IN: Which inhibition reading was recorded for the molecule Cc1ccccc1OCc1nnc(SCC(=O)N2c3ccccc3Sc3ccc(Cl)cc32)o1 ?
OUT: 57.3
